B1: Probable E3 ubiquitin-protein ligase MID2, residues 191 to 235; numbered along this chain, Q9UJV3 (parent)
chain: RGITCLDHENEKVNMYCVSDDQLICALCKLVGRHRDHQVASLNDR

Variants of: B1
Test: abundance fitness (aPCA) (normalised: wild type 0, dead -1); higher = more abundant; growth selection in yeast, the domain comes from the species named
Details: Homo sapiens
Items are presented alongside their recorded abundance fitness.
observed property: abundance fitness

>>> quantitative_readout("D44T")
-0.122
>>> quantitative_readout("E9T")
0.151
>>> quantitative_readout("A26P")
-0.018
>>> quantitative_readout("V13E")
-0.215
>>> quantitative_readout("C17M")
-0.517
>>> quantitative_readout("R45D")
-0.087
>>> quantitative_readout("S19G")
-0.005
>>> quantitative_readout("N14M")
-0.487
>>> quantitative_readout("R33S")
-0.112
>>> quantitative_readout("K29R")
0.07
>>> quantitative_readout("L30W")
-0.095
